# target: EP300 (P300(1048-1664)) (Homo sapiens)
# Construct: P300(1048-1664)
# Sequence (Q09472 1048-1664): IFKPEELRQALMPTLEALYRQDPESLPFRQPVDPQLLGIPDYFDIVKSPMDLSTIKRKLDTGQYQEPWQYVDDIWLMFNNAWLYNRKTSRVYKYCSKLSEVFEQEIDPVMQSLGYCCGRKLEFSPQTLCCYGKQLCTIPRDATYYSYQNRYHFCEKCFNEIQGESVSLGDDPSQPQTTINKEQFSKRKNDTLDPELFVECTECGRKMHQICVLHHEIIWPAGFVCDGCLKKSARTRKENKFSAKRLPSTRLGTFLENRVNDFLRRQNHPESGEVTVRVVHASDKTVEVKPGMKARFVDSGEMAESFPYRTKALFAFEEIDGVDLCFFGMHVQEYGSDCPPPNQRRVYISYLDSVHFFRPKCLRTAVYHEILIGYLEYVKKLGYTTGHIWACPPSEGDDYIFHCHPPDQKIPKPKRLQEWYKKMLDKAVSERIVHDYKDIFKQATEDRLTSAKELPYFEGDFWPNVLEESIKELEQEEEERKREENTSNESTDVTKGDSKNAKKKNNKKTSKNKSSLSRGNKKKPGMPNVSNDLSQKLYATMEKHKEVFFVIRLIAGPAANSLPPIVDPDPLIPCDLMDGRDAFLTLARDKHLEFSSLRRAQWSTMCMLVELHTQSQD
# assay.remarks: Biochemical assay for EP300, SAMDI
# reported.conditions: EP300, SAMDI; read-out: EP300 Biochemistry IC50
Rule for this label: true means IC50 is less than 10 nM; false means IC50 is at least 10 nM.

*Q* Is 10 nM strictly greater than the compound's reported IC50? compound: CCn1ncc(CN(C)C(=O)c2nc(-c3ccc(OCCCNC(C)C)c(C)c3)nc3ccc(Cl)cc23)c1C
*A* false

*Q* Is 10 nM strictly greater than the compound's reported IC50? compound: CCn1ncc(CN(C)C(=O)c2nc(-c3ccc(OCCNC)c(Cl)c3)nc3ccc(CN(C)C)cc23)c1C
*A* false

*Q* Is 10 nM strictly greater than the compound's reported IC50? compound: CCn1ncc(CN(C)C(=O)c2cc(-c3cccc(N)n3)nc3ccc(Cl)cc23)c1C
*A* false

*Q* Is 10 nM strictly greater than the compound's reported IC50? compound: CNc1[nH]nc2ccc(-c3nc(C(=O)N(C)Cc4cnc(C5CC5)n4C)c4cc(COC)ccc4n3)cc12
*A* false

*Q* Is 10 nM strictly greater than the compound's reported IC50? compound: CCc1nc(-c2cc(C(=O)N(C)Cc3cnn(CC)c3C)c3cc(Cl)ccc3n2)ccc1NCCN(C)C
*A* false

*Q* Is 10 nM strictly greater than the compound's reported IC50? compound: CCc1ncc(CN(C)C(=O)c2cc(-c3cc(-c4ncc[nH]4)n(C)n3)nc3ccc(Cl)cc23)n1C
*A* true

*Q* Is 10 nM strictly greater than the compound's reported IC50? compound: CCn1ncc(CN(C)C(=O)c2cc(-c3ccc(NCCNC)c(C)n3)nc3ccc(Cl)cc23)c1C [Compound 388]
*A* false

*Q* Is 10 nM strictly greater than the compound's reported IC50? compound: CCn1ncc(CN(C)C(=O)c2cc(-c3cc4c(N)n[nH]c4c(C)n3)nc3ccc(Cl)cc23)c1C
*A* false

*Q* Is 10 nM strictly greater than the compound's reported IC50? compound: CCn1ncc(CN(C)C(=O)c2nc(-c3cc(C)nc(N[C@@H]4CCNC4)c3)nc3ccc(Cl)cc23)c1C
*A* true

*Q* Is 10 nM strictly greater than the compound's reported IC50? compound: CCn1ncc(CN(C)C(=O)c2nc(-c3ccc(OCCO)c(Cl)c3)nc3ccc(Cl)cc23)c1C
*A* false

*Q* Is 10 nM strictly greater than the compound's reported IC50? compound: CCn1ncc(CN(C)C(=O)c2nc(-c3cc(C)c4c(N)[nH]nc4c3)nc3ccc(Cl)cc23)c1C
*A* true

*Q* Is 10 nM strictly greater than the compound's reported IC50? compound: CCc1ncc(CN(C)C(=O)c2nc(-c3cc(Cl)cc(NCCNC)c3)nc3ccc(Cl)cc23)n1C
*A* true

*Q* Is 10 nM strictly greater than the compound's reported IC50? compound: CCn1ncc(CN(C)C(=O)c2nc(-c3cc4c(NC)noc4cc3C)nc3ccc(Cl)cc23)c1C
*A* true

*Q* Is 10 nM strictly greater than the compound's reported IC50? compound: CCc1ncc(CN(C)C(=O)c2nc(-c3cc(C)nc(NCCNC)c3)nc3ccc(COC)cc23)n1C
*A* false

*Q* Is 10 nM strictly greater than the compound's reported IC50? compound: CCn1ncc(CN(C)C(=O)c2nc(-c3cn(CCNC)nc3C)nc3ccc(Cl)cc23)c1C
*A* false
